Numbers sourced from paper PMC9485191.

Molecular target: ERK5 (Homo sapiens)
Construct: gene MAPK7
Sequence (Q13164 2-816): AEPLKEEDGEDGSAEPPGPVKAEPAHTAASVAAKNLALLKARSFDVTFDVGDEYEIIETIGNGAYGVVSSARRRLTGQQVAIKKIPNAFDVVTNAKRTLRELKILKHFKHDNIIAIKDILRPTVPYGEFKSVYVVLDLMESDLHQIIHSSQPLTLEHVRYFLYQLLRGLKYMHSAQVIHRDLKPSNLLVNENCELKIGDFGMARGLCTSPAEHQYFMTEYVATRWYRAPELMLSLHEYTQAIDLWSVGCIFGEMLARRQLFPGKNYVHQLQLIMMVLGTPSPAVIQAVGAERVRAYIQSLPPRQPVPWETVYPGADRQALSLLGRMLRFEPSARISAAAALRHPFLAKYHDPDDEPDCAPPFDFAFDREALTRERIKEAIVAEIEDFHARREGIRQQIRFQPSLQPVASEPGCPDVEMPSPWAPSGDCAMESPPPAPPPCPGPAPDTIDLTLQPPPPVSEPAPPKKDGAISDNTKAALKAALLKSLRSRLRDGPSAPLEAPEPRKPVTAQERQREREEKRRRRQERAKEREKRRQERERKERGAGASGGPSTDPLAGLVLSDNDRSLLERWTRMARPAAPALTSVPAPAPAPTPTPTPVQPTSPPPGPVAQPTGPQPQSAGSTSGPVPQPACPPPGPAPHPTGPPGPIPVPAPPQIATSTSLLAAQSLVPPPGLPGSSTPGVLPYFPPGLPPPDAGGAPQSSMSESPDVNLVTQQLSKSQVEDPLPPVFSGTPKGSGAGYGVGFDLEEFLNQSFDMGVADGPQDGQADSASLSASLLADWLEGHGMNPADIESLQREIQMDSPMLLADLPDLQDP
Assay: in vitro (cell-free) kinase assay at […] ATP ([…] at […] ATP); supported by inhibition of EGF-induced ERK5 phosphorylation in cells
Assay type: biochemical
Quantity Name: IC50

Endpoint output: IC50 of CCC(C)N1c2ccccc2C(=O)N(C)c2cnc(Nc3ccc(C(=O)N4CCC(N5CCN(C)CC5)CC4)cc3OC)nc21 (stereo not shown) . Value?
~90 nM

###

Molecular target: ERK5 (Homo sapiens)
Construct: gene MAPK7
Test: biochemical
Parameters: radiometric 32P-ATP kinase assay, active ERK5, PIMtide substrate, p81 paper, Cherenkov counting
Conditions: 200 uM ATP
Quantity Name: IC50 (µM)
// return numeric value only (unit: µM, not printed)

Which IC50 value belongs to CCC(C)N1c2ccccc2C(=O)N(C)c2cnc(Nc3ccc(C(=O)N4CCC(N5CCN(C)CC5)CC4)cc3OC)nc21 (stereo not shown) [JWG-071] ?
0.572
